# Tested on: yellow broilers
# SETTINGS: 1-day-old yellow broilers, basal ration + 750 ppm, 20 days
EXPERIMENTAL READOUT: ADFI (average daily feed intake) (g/d per broiler)
One number for each entry, in g/d per broiler.

Provide reported ADFI (average daily feed intake) for each item, in the same order as listed.
1. CCNC(=O)CCC(NC(=O)c1ccccc1)C(=O)O (stereo not shown)
2. CCCCCCCCCC(=O)NC(CCC(=O)NCC)C(=O)O (stereo not shown)
3. CCNC(=O)CCC(NC(=O)c1ccccc1)C(=O)[O-].CCNC(=O)CCC(NC(=O)c1ccccc1)C(=O)[O-].[Zn+2] (stereo not shown)
4. CCNC(=O)CCC(NC(=O)c1ccccc1)C(=O)[O-].CCNC(=O)CCC(NC(=O)c1ccccc1)C(=O)[O-].[Ca+2] (stereo not shown)

[32.8, 31.8, 31.7, 32.5]
